The reported measurements were obtained from the array DNA melting data of Ke et al. (doi:10.1101/2024.01.08.574731).

# method summary: folding enthalpy; higher = less favourable; fluorescence melt of hairpins on a sequencing array, two-state fit
# applied conditions: sodium 0.088 M
endpoint name: folding enthalpy (kcal/mol)
Give bare numbers, in kcal/mol.

For every item in the list below, what is its measured folding enthalpy?
1. GAGAAGGGAAACCTTTTC ((.((((....)))).))
2. GATCCTGCACAGGATC ((((((....))))))
3. GCTATCGAAAGATAGC ((((((....))))))
4. GTCATAGGAAACTACGAC (((.(((....))).)))
5. GCGTAGGTACGC ((((....))))
6. GCAACCTCGAAAGAGTGC (((..(((....))))))
7. GCGGCTGTCCGC ((((....))))
8. GGGACAGGAAACTGTCTC (.(((((....))))).)

1. -28.4
2. -47.2
3. -39
4. -16.5
5. -20.3
6. -21.7
7. -28.3
8. -28.1
